# test.method.notes: Hygroscopicity by dynamic vapor sorption (DVS) at 25° C.
# Assay type: physicochemical
# conditions.used: DVS 25° C., 95% RH, 2nd desorption
Parameter Desorp. (%): see the listing below.

CCOc1cc(C(=O)N(C)Cc2cnc(CO)c3cn[nH]c23)ccc1-c1cc(F)cc(F)c1.O=P(O)(O)O [Phosphate salt Pattern A]; 0.82%
CCOc1cc(C(=O)N(C)Cc2cnc(CO)c3cn[nH]c23)ccc1-c1cc(F)cc(F)c1.[Na] [Sodium salt Pattern A]; 6.60%
CCOc1cc(C(=O)N(C)Cc2cnc(CO)c3cn[nH]c23)ccc1-c1cc(F)cc(F)c1.Cl [HCl salt Pattern A]; 2.20%

Please find the next compound below.
Item: CCOc1cc(C(=O)N(C)Cc2cnc(CO)c3cn[nH]c23)ccc1-c1cc(F)cc(F)c1 [Free form Pattern A] | Desorp. (%): 4.58%

###

# test.method.notes: Solubility at 37° C. in buffers and biorelevant media, XRPD of residual solid
# Format: physicochemical
# conditions.used: pH 6.8 phosphate buffer (50 mM), 37° C., 24 h
experimental.endpoint: pH of supernatant at 24 h

CCOc1cc(C(=O)N(C)Cc2cnc(CO)c3cn[nH]c23)ccc1-c1cc(F)cc(F)c1.[Na] [Sodium salt Pattern A]; (7.0)
CCOc1cc(C(=O)N(C)Cc2cnc(CO)c3cn[nH]c23)ccc1-c1cc(F)cc(F)c1.Cl [HCl salt Pattern A]; (6.7)
CCOc1cc(C(=O)N(C)Cc2cnc(CO)c3cn[nH]c23)ccc1-c1cc(F)cc(F)c1 [Free form Pattern A]; (6.8)
CCOc1cc(C(=O)N(C)Cc2cnc(CO)c3cn[nH]c23)ccc1-c1cc(F)cc(F)c1.O=P(O)(O)O [Phosphate salt Pattern A]; (6.7)

###

# test.method.notes: Solubility at 37° C. in buffers and biorelevant media, XRPD of residual solid
# Assay type: physicochemical
# conditions.used: fassgf or other biorelevant, thermodynamic from solid; FaSSGF, pH 1.6, 37° C., 24 h
Parameter solubility at 24 h: see the listing below.
Record the result as a number with its unit.

CCOc1cc(C(=O)N(C)Cc2cnc(CO)c3cn[nH]c23)ccc1-c1cc(F)cc(F)c1.Cl [HCl salt Pattern A]; 522 µg/mL
CCOc1cc(C(=O)N(C)Cc2cnc(CO)c3cn[nH]c23)ccc1-c1cc(F)cc(F)c1.[Na] [Sodium salt Pattern A]; 630 µg/mL
CCOc1cc(C(=O)N(C)Cc2cnc(CO)c3cn[nH]c23)ccc1-c1cc(F)cc(F)c1.O=P(O)(O)O [Phosphate salt Pattern A]; 653 µg/mL

Please find the next compound below.
Item: CCOc1cc(C(=O)N(C)Cc2cnc(CO)c3cn[nH]c23)ccc1-c1cc(F)cc(F)c1 [Free form Pattern A] | solubility at 24 h: 616 µg/mL

###

Parameter solubility at 2 h: see the listing below.
# test.method.notes: Solubility at 37° C. in buffers and biorelevant media, XRPD of residual solid
# Assay type: physicochemical
# conditions.used: aqueous buffer, thermodynamic from solid; pH 4.5 acetate buffer (50 mM), 37° C., 2 h
// return numeric value only (unit: µg/mL, not printed)

CCOc1cc(C(=O)N(C)Cc2cnc(CO)c3cn[nH]c23)ccc1-c1cc(F)cc(F)c1.O=P(O)(O)O [Phosphate salt Pattern A]; 9.4
CCOc1cc(C(=O)N(C)Cc2cnc(CO)c3cn[nH]c23)ccc1-c1cc(F)cc(F)c1.[Na] [Sodium salt Pattern A]; 9.3
CCOc1cc(C(=O)N(C)Cc2cnc(CO)c3cn[nH]c23)ccc1-c1cc(F)cc(F)c1.Cl [HCl salt Pattern A]; 14.4

Item: CCOc1cc(C(=O)N(C)Cc2cnc(CO)c3cn[nH]c23)ccc1-c1cc(F)cc(F)c1 [Free form Pattern A] | solubility at 2 h: 14.4
